Species: Rattus norvegicus
Assay: Open TG-GATES - Regimen: Single
Format: toxicity, organism-based, Sprague-Dawley
Parameters: regimen Single, gender Male, age 6 weeks
Conditions: in vivo, po, 0 mg/kg, 3 h, tissue Plasma, route gavage, dose level Control
Some compounds, each annotated with its measured TC.
Form entry: enter the amount, then its unit.

Study these solved cases before continuing.
Prompt: Please list TC recorded for the compound C[C@H]1O[C@H](O[C@H]2[C@H](O)[C@@H](O)[C@@H](O[C@H]3[C@H](O)[C@@H](O)C(O)O[C@@H]3CO)O[C@@H]2CO)[C@H](O)[C@@H](O)[C@@H]1N[C@H]1C=C(CO)[C@@H](O)[C@H](O)[C@H]1O (stereo partly drawn)
Response: 73.6 mg/dL

Prompt: Please list TC recorded for the compound `O=[N+]([O-])c1ccc(O)c([N+](=O)[O-])c1`
Response: 87.2 mg/dL

Let us examine a further case.
Prompt: Please list TC recorded for the compound `C[C@H]1C(=O)O[C@@H]2CCN3CC=C(COC(=O)[C@](C)(O)[C@]1(C)O)[C@H]23`
Response: 78.2 mg/dL

---

Species on record: Rattus norvegicus
Assay: Open TG-GATES - Regimen: Daily Repeat
Format: toxicity, organism-based, Sprague-Dawley
Set-up: regimen Daily Repeat, gender Male, age 6 weeks
Settings: in vivo, po, 0 mg/kg, 72 h, tissue Plasma, route gavage, dose level Control, time 3 day
Some molecules, each annotated with its measured LDH.
Write down the numeric answer in IU/L and omit the unit.

Study these solved cases before continuing.
Prompt: Please list LDH recorded for the molecule `OCCN1CCN(CCCN2c3ccccc3Sc3ccc(C(F)(F)F)cc32)CC1`
Response: 77.2

Prompt: Please list LDH recorded for the molecule `O=[N+]([O-])c1ccc(O)c([N+](=O)[O-])c1`
Response: 91.6

More entries:
Prompt: Please list LDH recorded for the molecule `C=C(C)[C@H]1Cc2c(ccc3c2O[C@@H]2COc4cc(OC)c(OC)cc4[C@@H]2C3=O)O1`
Response: 96.6

Prompt: Please list LDH recorded for the molecule Cc1cccc(C)c1OCC(C)N (centres undefined)
Response: 178

Prompt: Please list LDH recorded for the molecule CCOC(=O)C(C)(C)Oc1ccc(Cl)cc1 [CLOFIBRATE]
Response: 230.6

---

Some compounds, each annotated with its measured Lym.
Organism: Rattus norvegicus
Assay: Open TG-GATES - Regimen: Single
Type: toxicity, organism-based, Sprague-Dawley
Parameters: regimen Single, gender Male, age 6 weeks
Settings: in vivo, po, 0 mg/kg, 9 h, tissue Blood, route gavage, dose level Control
Write down the numeric answer in % and omit the unit.

Study these solved cases before continuing.
Prompt: Please list Lym recorded for the compound C[C@H]1O[C@H](O[C@H]2[C@H](O)[C@@H](O)[C@@H](O[C@H]3[C@H](O)[C@@H](O)C(O)O[C@@H]3CO)O[C@@H]2CO)[C@H](O)[C@@H](O)[C@@H]1N[C@H]1C=C(CO)[C@@H](O)[C@H](O)[C@H]1O (some centres undefined)
Response: 75.2

Prompt: Please list Lym recorded for the compound `O=[N+]([O-])c1ccc(O)c([N+](=O)[O-])c1`
Response: 76.2

Prompt: Please list Lym recorded for the compound Cc1cccc(C)c1OCC(C)N (centres undefined)
Response: 77.2

Prompt: Please list Lym recorded for the compound `C[C@H]1C(=O)O[C@@H]2CCN3CC=C(COC(=O)[C@](C)(O)[C@]1(C)O)[C@H]23`
Response: 73

Prompt: Please list Lym recorded for the compound `Cn1cc[nH]c1=S`
Response: 81.6

Let us examine a further case.
Prompt: Please list Lym recorded for the compound CCOC(=O)C(C)(C)Oc1ccc(Cl)cc1 [CLOFIBRATE]
Response: 73.2

---

Some compounds, each annotated with its measured Lym.
Species on record: Rattus norvegicus
Assay: Open TG-GATES - Regimen: Daily Repeat
Assay type: toxicity, organism-based, Sprague-Dawley
Design: regimen Daily Repeat, gender Male, age 6 weeks
Conditions: in vivo, po, 0 mg/kg, […], tissue Blood, route gavage, dose level Control, time 7 day
Write down the numeric answer in % and omit the unit.

Study these solved cases before continuing.
Prompt: Please list Lym recorded for the compound CCOC(=O)C(C)(C)Oc1ccc(Cl)cc1 [CLOFIBRATE]
Response: 81.6

Prompt: Please list Lym recorded for the compound Cc1cccc(C)c1OCC(C)N (centres undefined)
Response: 77.8

Prompt: Please list Lym recorded for the compound `O=[N+]([O-])c1ccc(O)c([N+](=O)[O-])c1`
Response: 77.2

Prompt: Please list Lym recorded for the compound `O=C1CN(/N=C/c2ccc([N+](=O)[O-])o2)C(=O)N1`
Response: 80.6

Prompt: Please list Lym recorded for the compound `C=C(C)[C@H]1Cc2c(ccc3c2O[C@@H]2COc4cc(OC)c(OC)cc4[C@@H]2C3=O)O1`
Response: 80

Prompt: Please list Lym recorded for the compound C[C@H]1O[C@H](O[C@H]2[C@H](O)[C@@H](O)[C@@H](O[C@H]3[C@H](O)[C@@H](O)C(O)O[C@@H]3CO)O[C@@H]2CO)[C@H](O)[C@@H](O)[C@@H]1N[C@H]1C=C(CO)[C@@H](O)[C@H](O)[C@H]1O (some centres undefined)
Response: 77.2

Prompt: Please list Lym recorded for the compound `C[C@H]1C(=O)O[C@@H]2CCN3CC=C(COC(=O)[C@](C)(O)[C@]1(C)O)[C@H]23`
Response: 80.6

Prompt: Please list Lym recorded for the compound `OCCN1CCN(CCCN2c3ccccc3Sc3ccc(C(F)(F)F)cc32)CC1`
Response: 80.6

Let us examine a further case.
Prompt: Please list Lym recorded for the compound `Cn1cc[nH]c1=S`
Response: 80.2

---

Species on record: Rattus norvegicus
Experiment: Open TG-GATES - Regimen: Daily Repeat
Type: toxicity, organism-based, Sprague-Dawley
Parameters: regimen Daily Repeat, gender Male, age 6 weeks
Conditions: in vivo, po, 0 mg/kg, 72 h, tissue Plasma, route gavage, dose level Control, time 3 day
Some compounds, each annotated with its measured DBIL.
Form entry: enter the amount, then its unit.

Study these solved cases before continuing.
Prompt: Please list DBIL recorded for the compound O=[N+]([O-])c1ccc(O)c([N+](=O)[O-])c1 [2,4-DINITROPHENOL]
Response: 0.01 mg/dL

Prompt: Please list DBIL recorded for the compound C[C@H]1C(=O)O[C@@H]2CCN3CC=C(COC(=O)[C@](C)(O)[C@]1(C)O)[C@H]23 [MONOCROTALINE]
Response: 0.004 mg/dL

Prompt: Please list DBIL recorded for the compound C=C(C)[C@H]1Cc2c(ccc3c2O[C@@H]2COc4cc(OC)c(OC)cc4[C@@H]2C3=O)O1 [ROTENONE]
Response: 0.014 mg/dL

Let us examine a further case.
Prompt: Please list DBIL recorded for the compound O=C1CN(/N=C/c2ccc([N+](=O)[O-])o2)C(=O)N1 [NITROFURANTOIN]
Response: 0.1 mg/dL

---

Organism: Rattus norvegicus
Test: Open TG-GATES - Regimen: Single
Type: toxicity, organism-based, Sprague-Dawley
Set-up: regimen Single, gender Male, age 6 weeks
Conditions: in vivo, po, 0 mg/kg, 6 h, tissue Plasma, route gavage, dose level Control
MEASURE NAME: PL (mg/dL)
Write down the numeric answer in mg/dL and omit the unit.

Study these solved cases before continuing.
Prompt: Please list PL recorded for the compound Cc1ccc2cc3c(ccc4ccccc43)c3c2c1CC3 [3-METHYLCHOLANTHRENE]
Response: 142.4

Prompt: Please list PL recorded for the compound C[C@H]1C(=O)O[C@@H]2CCN3CC=C(COC(=O)[C@](C)(O)[C@]1(C)O)[C@H]23 [MONOCROTALINE]
Response: 132.4

Prompt: Please list PL recorded for the compound Cc1cccc(C)c1OCC(C)N (stereo not given) [MEXILETINE]
Response: 125

Prompt: Please list PL recorded for the compound CCOC(=O)C(C)(C)Oc1ccc(Cl)cc1 [CLOFIBRATE]
Response: 157.6

Let us examine a further case.
Prompt: Please list PL recorded for the compound OCCN1CCN(CCCN2c3ccccc3Sc3ccc(C(F)(F)F)cc32)CC1 [FLUPHENAZINE]
Response: 118.2

---

Species: Rattus norvegicus
Experiment: Open TG-GATES - Regimen: Single
Type: toxicity, organism-based, Sprague-Dawley
Parameters: regimen Single, gender Male, age 6 weeks
Conditions: in vivo, po, 0 mg/kg, 9 h, tissue Plasma, route gavage, dose level Control
Classification field: enter YES for IP values not below 10 mg/dL, NO for values below it.

Prompt: # check: IP of `O=[N+]([O-])c1ccc(O)c([N+](=O)[O-])c1` is greater than or equal to 10 mg/dL
Response: YES

More entries:
Prompt: # check: IP of `C[C@H]1C(=O)O[C@@H]2CCN3CC=C(COC(=O)[C@](C)(O)[C@]1(C)O)[C@H]23` is greater than or equal to 10 mg/dL
Response: NO

Prompt: # check: IP of `Cc1ccc2cc3c(ccc4ccccc43)c3c2c1CC3` is greater than or equal to 10 mg/dL
Response: YES

Prompt: # check: IP of Cc1cccc(C)c1OCC(C)N (centres undefined) is greater than or equal to 10 mg/dL
Response: NO

This collection of values is drawn from ChEMBL document CHEMBL3885861.
